# Tested on: HOP-92 NSCLC
# Procedure Summary: NCI tumour cell line growth inhibition, 48 h
Result Type: log10(TGI) (log10 of the value in µM)

- Molecule: "Cc1ccc(C2SC(N)=Nc3c2c(C)nn3C(=O)c2ccccc2O)cc1 (stereo not drawn)"
  Result Value: 0.70
- Molecule: "Cc1cc(Cc2cc(C)cc(C(C)(C)C)c2O)c(O)c(Cc2cc(C)cc(C(C)(C)C)c2O)c1"
  Result Value: 0.97
- Molecule: "C=C1C(=O)O[C@H]2[C@H]1CCC(/C=N/c1ncc(Br)cc1N)=C\\CC[C@@]1(C)O[C@@H]21"
  Result Value: 0.57
- Molecule: "O=C(c1ccccc1)C(Br)C(Br)c1cccc([N+](=O)[O-])c1 (stereo not drawn)"
  Result Value: 0.59
- Molecule: "C=C1C(=O)O[C@H]2[C@H](OC(C)=O)[C@@H](C)CCC/C(C)=C/CC[C@@]3(C)O[C@@H]3C[C@@H]12"
  Result Value: 0.74
- Molecule: "CCCCCCCCCCC(C(O)c1ccccc1)N1CCCCC1 (stereo not drawn)"
  Result Value: 0.58
- Molecule: "COc1ccc(S(=O)(=O)N/N=C/c2cc(I)cc([N+](=O)[O-])c2O)cc1OC"
  Result Value: 1.66
- Molecule: "Nc1nc(N)c2c(n1)NC(c1ccc(F)cc1)C1CCc3ccccc3C1=N2 (stereo not drawn)"
  Result Value: 0.82
- Molecule: "Fc1ccccc1C1SCc2nc3ccccc3n21 (stereo not drawn)"
  Result Value: 1.86
- Molecule: "O=S(=O)(c1cccc2c(Cl)cccc12)N1CCCNCC1"
  Result Value: 1.41
- Molecule: "CNCCNc1c2c(c(NCCNC)c3[nH]ccc13)C(=O)c1ccccc1C2=O"
  Result Value: 0.37
- Molecule: "CC(NCCC(=O)N(CCC(=O)N(CCC(=O)N(CCC(=O)N(CCC(=O)N(CCC(=O)N(CCC(=O)N(CCC(=O)N(CCC(=O)N(CCC(=O)O)[C@H](C)c1ccccc1)[C@H](C)c1ccccc1)[C@H](C)c1ccccc1)[C@H](C)c1ccccc1)[C@H](C)c1ccccc1)[C@H](C)c1ccccc1)[C@H](C)c1ccccc1)[C@H](C)c1ccccc1)[C@H](C)c1ccccc1)c1ccccc1 (stereo partly drawn)"
  Result Value: 0.37
- Molecule: "Cc1cc2[nH]c(=O)c3c4ccccc4cn3c2cc1C"
  Result Value: 1.48
- Molecule: "N#CC1=C(N)Oc2c(sc3c(Br)cccc23)C1c1ccc(Br)cc1 (stereo not drawn)"
  Result Value: 0.75

====

# System: ACHN renal
# Procedure Summary: NCI tumour cell line growth inhibition, 48 h
Parameter: TGI. Scope: all listed entries.

- Molecule: "C/C=C(\\C)C(=O)OC1C(C)=C2C(C1OC(=O)CCCC)C(C)(OC(C)=O)CC(OC(=O)CCCC)C1(O)C2OC(=O)C1(C)O (stereo not given)"
  TGI: "> 100 µM"
- Molecule: "COC(=O)NC12CC3CC(CC(F)(C3)C1)C2"
  TGI: "> 100 µM"
- Molecule: "CN1C(=O)C(CC(=O)O)NC1=S (stereo not given)"
  TGI: "> 100 µM"
- Molecule: "O=c1oc2cc(N=Cc3ccc4c(c3)OCO4)ccc2c2ccccc12"
  TGI: "> 100 µM"
- Molecule: "CCC[CH2][Sn]([CH2]CCC)([CH2]CCC)[O]C(=O)c1ccc(Cl)cc1Cl"
  TGI: "0.34 µM"
- Molecule: "COCn1cnc2c(=O)n(-c3ccc(OC)cc3)c(=S)n(-c3ccc(OC)cc3)c21"
  TGI: "> 100 µM"
- Molecule: "CN(C)CCCN1c2ccccc2C(C)(C)c2ccccc21"
  TGI: "28.6 µM"
- Molecule: "COc1ccc(C2=NN(C(N)=S)C(c3ccccc3)C2)cc1 (stereo not given)"
  TGI: "> 100 µM"
- Molecule: "COc1cccc(OCCCN)c1-c1cc(Nc2cnc(C#N)cn2)n[nH]1"
  TGI: "0.0146 µM"
- Molecule: "COC(=O)C1=C(C(=O)OC)SC(=C(Cl)C(=S)Nc2ccccc2O)S1"
  TGI: "> 50 µM"
- Molecule: "COc1ccc(CC(=O)NCCc2ccc(OC)c(OC)c2)cc1Br"
  TGI: "> 100 µM"
- Molecule: "O=C(c1ccccc1)[C@@H]1C[C@H](Sc2ccccc2)c2cc(Cl)ccc2N1"
  TGI: "> 100 µM"
- Molecule: "O=C(Nc1ccc2[nH]c(=S)sc2c1)Nc1ccccc1F"
  TGI: "> 100 µM"
- Molecule: "CCOC(=O)[C@@H]1CCN2CN(c3ccc(OC)cc3)N=C(c3ccccc3)[C@@]12c1ccccc1"
  TGI: "91.5 µM"
- Molecule: "COc1ccc(/C(=N\\O)c2cc(C)c(OC)c(C)c2)cc1O"
  TGI: "> 100 µM"
